Consider the following compounds; for each one, report its TGI.
Test system: OVCAR-5 ovarian
Test: NCI tumour cell line growth inhibition, 48 h

Worked cases, answers included:
1. O=C1C(=O)N(C(=O)c2ccc(Cl)c(Cl)c2)c2ccc(Cl)cc21 : > 100 µM
2. Cc1oc2c(C)c(O)c3c(c2c1C1(C)OCCO1)C(=O)C=C(Cl)C3=O : > 100 µM
3. CCCN1CN(C(C(=O)N[C@@H]2C(=O)N3C2SC(C)(C)C3C(=O)O)c2ccccc2)CSC1=S (some centres not stated) : > 100 µM
4. Clc1ccc(Nc2nc(Cl)c3[nH]cnc3n2)cc1Cl : > 100 µM
5. CC(=O)OCc1cc(OC(C)=O)cnc1COC(C)=O : > 100 µM

Look up TGI for the entries below, preserving their order.
1. NC1CC(=O)c2c(Cl)sc(Cl)c21 (configuration not stated)
2. Nc1ncnc2c1nc(-c1ccccc1)n2C1OC(CO)C(O)C1O (configuration not stated)
3. O=C(O)c1ccc2c(c1Nc1ccccc1)C(=O)c1ccccc1C2=O

Result:
["42.9 µM", "> 100 µM", "> 100 µM"]

Please supply TGI for each of the following items, keeping them in order.
1. N#CC1=C(S)N(C2OC(CO)C(O)C(O)C2O)C(c2ccccc2)=CC1c1ccccc1 (configuration not stated)
2. COC(=O)C(C(=O)C(=O)Nc1ccccc1C(C)=O)c1nc2ccc(Cl)cc2[nH]c1=O (configuration not stated)
3. O=C1c2ccccc2-c2nc3ccc(O)cc3n21
4. Cc1ccc2c(=O)cc(-c3cccc4ccccc34)[nH]c2n1
5. COc1ccc(-c2nn(-c3cccc(NC(=O)Nc4ccc(Cl)c(C(F)(F)F)c4)c3)cc2-c2ccncc2)cc1Cl

Result:
> 100 µM
> 100 µM
> 100 µM
> 47.1 µM
30.8 µM

Each compound below has a reported value. Please supply its TGI.
1. C=CCNC(=S)N1c2ccccc2NC(=O)CC1C (configuration not stated)
2. CC(C)OCC(O)COc1ccc2ccc(=O)oc2c1 (configuration not stated)
3. COc1[nH]c(C(Cl)(Cl)Cl)c(Cl)c(=O)c1Cl
4. CC1=NN(C(=O)CC(=O)Nc2ccccc2Cl)C(=O)C1N=Nc1ccc(C(=O)O)cc1 (configuration not stated)

Result:
1: > 100 µM; 2: > 100 µM; 3: > 100 µM; 4: > 100 µM

Here are 5 compounds. What values of TGI were reported for them?
1. COc1cc2ccc3c4c(OC)cc(OC)c(OC)c4c(=O)n(C)c3c2cc1OC
2. CCc1ccccc1NC(=O)CCc1n[nH]c(=S)o1
3. O=C1OCc2c1cc(F)cc2[N+](=O)[O-]
4. Cc1cc(C)c(O)c(Cc2cccc(Cc3cc(C)cc(C)c3O)c2O)c1
5. C/C=C/C=N/N(C(=O)c1cc([N+](=O)[O-])cc([N+](=O)[O-])c1)C1=NC(c2ccccc2)C(c2ccccc2)=NN1 (configuration not stated)

Result:
23.1 µM
> 100 µM
> 100 µM
> 100 µM
> 100 µM
